- measured.target: CSF-1R (Homo sapiens)
- Construct: purchased Invitrogen PV3249 (lot 662393N)
- Sequence (P07333 20-972): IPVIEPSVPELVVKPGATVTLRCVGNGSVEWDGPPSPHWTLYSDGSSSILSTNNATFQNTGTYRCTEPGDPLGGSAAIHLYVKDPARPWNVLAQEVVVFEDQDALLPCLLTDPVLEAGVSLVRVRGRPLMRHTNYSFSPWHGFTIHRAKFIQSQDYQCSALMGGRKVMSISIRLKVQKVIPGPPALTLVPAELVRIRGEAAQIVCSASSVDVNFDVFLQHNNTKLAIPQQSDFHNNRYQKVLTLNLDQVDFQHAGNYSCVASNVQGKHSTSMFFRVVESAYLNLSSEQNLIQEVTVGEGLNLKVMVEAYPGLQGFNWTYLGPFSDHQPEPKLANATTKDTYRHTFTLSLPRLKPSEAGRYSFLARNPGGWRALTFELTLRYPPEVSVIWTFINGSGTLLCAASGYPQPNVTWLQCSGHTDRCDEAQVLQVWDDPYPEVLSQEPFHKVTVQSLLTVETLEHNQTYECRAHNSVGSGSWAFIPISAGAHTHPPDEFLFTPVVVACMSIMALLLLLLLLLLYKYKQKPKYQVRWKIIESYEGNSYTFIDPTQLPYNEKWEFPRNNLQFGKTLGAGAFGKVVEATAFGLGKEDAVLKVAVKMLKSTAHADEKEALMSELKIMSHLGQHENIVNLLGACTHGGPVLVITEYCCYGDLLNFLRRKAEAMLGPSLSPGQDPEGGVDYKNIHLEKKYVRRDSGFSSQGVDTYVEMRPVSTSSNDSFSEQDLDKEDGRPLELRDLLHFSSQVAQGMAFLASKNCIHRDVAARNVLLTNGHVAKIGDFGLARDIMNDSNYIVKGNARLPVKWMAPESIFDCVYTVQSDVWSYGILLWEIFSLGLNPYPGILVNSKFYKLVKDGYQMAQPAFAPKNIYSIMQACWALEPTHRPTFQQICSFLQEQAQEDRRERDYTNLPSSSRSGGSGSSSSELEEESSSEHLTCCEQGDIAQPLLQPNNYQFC
- procedure.details: Caliper biochemical assay, CSF-1R
- experimental.context: Table 6
pIC50: −log10 of the molar value.
Consider the following compounds and their measured pIC50 readings.
metric.name: pIC50

| compound | metric.name | endpoint.value |
| --- | --- | --- |
| Cc1ccc(-c2noc([C@H]3C[C@@H]3F)n2)cc1NC(=O)c1cnc2cc(Nc3ccc4c(c3)OCCO4)ccn12 | pIC50 | ≥ 7.30 |
| Cc1ccc(-c2noc(C3CCC(=O)N3C)n2)cc1NC(=O)c1cnc2ccccn12 (racemic) | pIC50 | 5.30 to 6.30 |
| COCCS(=O)(=O)N1CC(c2nc(-c3ccc(C)c(NC(=O)c4cnc5ccccn45)c3)no2)C1 | pIC50 | 6.30 to 7.30 |
| Cc1ccc(-c2noc(C3(C)CC(F)(F)CN3)n2)cc1NC(=O)c1cnc2ccccn12 (racemic) | pIC50 | 6.30 to 7.30 |
| CCN1CC[C@H]1c1nc(-c2ccc(C)c(NC(=O)c3cnc4ccccn34)c2)no1 (racemic) | pIC50 | 6.30 to 7.30 |
| Cc1ccc(-c2noc(C3CC(Oc4ccccc4)C3)n2)cc1NC(=O)c1cnc2ccccn12 (centres unmarked) [Compound I-347] | pIC50 | 6.30 to 7.30 |
| Cc1ccc(-c2noc(C3CCC3F)n2)cc1NC(=O)c1cnc2ccccn12 (racemic) [Compound I-377] | pIC50 | ≥ 7.30 |
| Cc1ccc(-c2noc(C3CCN3CCOC(F)(F)F)n2)cc1NC(=O)c1cnc2ccccn12 (racemic) | pIC50 | 6.30 to 7.30 |
| Cc1ccc(-c2noc(C3COC3)n2)cc1NC(=O)c1cnc2ccccn12 | pIC50 | ≥ 7.30 |
| Cc1ccc(-c2noc(C3CCC(F)C3)n2)cc1NC(=O)c1cnc2ccccn12 (racemic) [Compound I-319] | pIC50 | ≥ 7.30 |
| Cc1ccc(-c2noc([C@H]3CC(F)(F)CN3)n2)cc1NC(=O)c1cnn2ccccc12 | pIC50 | 6.30 to 7.30 |
| COC(=O)N1CC(c2nc(-c3ccc(C(F)F)c(NC(=O)c4cnc5ccccn45)c3)no2)C1 | pIC50 | 6.30 to 7.30 |
| Cc1ccc(-c2noc([C@@H](C)O)n2)cc1NC(=O)c1cnc2ccccn12 | pIC50 | ≥ 7.30 |
| Cc1ccc(-c2noc(CC(O)C(F)F)n2)cc1NC(=O)c1cnc2ccccn12 (centres unmarked) | pIC50 | 6.30 to 7.30 |
| COC(=O)N1CC(c2nc(-c3ccc(C)c(NC(=O)c4cnc5cc(OC(C)(C)CO)ccn45)c3)no2)C1 | pIC50 | ≥ 7.30 |
| CCCNc1ccn2c(C(=O)Nc3cc(-c4noc([C@H]5C[C@@H]5F)n4)ccc3C)cnc2c1 | pIC50 | ≥ 7.30 |
| Cc1ccc(-c2noc(C3CC4(CCC4)C3)n2)cc1NC(=O)c1cnc2ccccn12 | pIC50 | ≥ 7.30 |

---

- procedure.details: Three time point assay for plasma, brain and testes distribution after oral dosing
- Assay type: in vivo, rat
- experimental.context: male, SD, testes, 10 mg/kg; rat, oral dosing, time point 7 h; read-out: Kp testes/plasma

| compound | Kp at 7 h |
| --- | --- |
| Cc1ccc(-c2noc([C@H]3C[C@@H]3F)n2)cc1NC(=O)c1cnc2cc(COCC(C)(C)O)ccn12 [Compound I-71] | 0.18 |

---

- measured.target: CSF-1R (Homo sapiens)
- Construct: purchased Invitrogen PV3249 (lot 662393N)
- procedure.details: Caliper biochemical assay, CSF-1R
- experimental.context: Table 6
pIC50: −log10 of the molar value.
Listing: pIC50 of selected compounds

| compound | pIC50 |
| --- | --- |
| Cc1ccc(-c2noc([C@@H]3CCN3S(=O)(=O)c3cn(C)cn3)n2)cc1NC(=O)c1cnc2ccccn12 | 6.30 to 7.30 |
| Cc1ccc(-c2noc(CCO)n2)cc1NC(=O)c1cnc2ccccn12 | 6.30 to 7.30 |
| Cc1ccc(-c2noc(C3CC(C)(F)C3)n2)cc1NC(=O)c1cnc2ccccn12 (stereo not shown) | ≥ 7.30 |
| COCc1ccn2c(C(=O)Nc3cc(-c4noc(C)n4)ccc3C)cnc2c1 | 5.30 to 6.30 |

---

- measured.target: PDGFRα (Homo sapiens, UniProt P16234)
- Construct: purchased Millipore 14-467 (lot 26321_ACTI)
- Sequence (P16234 24-1089): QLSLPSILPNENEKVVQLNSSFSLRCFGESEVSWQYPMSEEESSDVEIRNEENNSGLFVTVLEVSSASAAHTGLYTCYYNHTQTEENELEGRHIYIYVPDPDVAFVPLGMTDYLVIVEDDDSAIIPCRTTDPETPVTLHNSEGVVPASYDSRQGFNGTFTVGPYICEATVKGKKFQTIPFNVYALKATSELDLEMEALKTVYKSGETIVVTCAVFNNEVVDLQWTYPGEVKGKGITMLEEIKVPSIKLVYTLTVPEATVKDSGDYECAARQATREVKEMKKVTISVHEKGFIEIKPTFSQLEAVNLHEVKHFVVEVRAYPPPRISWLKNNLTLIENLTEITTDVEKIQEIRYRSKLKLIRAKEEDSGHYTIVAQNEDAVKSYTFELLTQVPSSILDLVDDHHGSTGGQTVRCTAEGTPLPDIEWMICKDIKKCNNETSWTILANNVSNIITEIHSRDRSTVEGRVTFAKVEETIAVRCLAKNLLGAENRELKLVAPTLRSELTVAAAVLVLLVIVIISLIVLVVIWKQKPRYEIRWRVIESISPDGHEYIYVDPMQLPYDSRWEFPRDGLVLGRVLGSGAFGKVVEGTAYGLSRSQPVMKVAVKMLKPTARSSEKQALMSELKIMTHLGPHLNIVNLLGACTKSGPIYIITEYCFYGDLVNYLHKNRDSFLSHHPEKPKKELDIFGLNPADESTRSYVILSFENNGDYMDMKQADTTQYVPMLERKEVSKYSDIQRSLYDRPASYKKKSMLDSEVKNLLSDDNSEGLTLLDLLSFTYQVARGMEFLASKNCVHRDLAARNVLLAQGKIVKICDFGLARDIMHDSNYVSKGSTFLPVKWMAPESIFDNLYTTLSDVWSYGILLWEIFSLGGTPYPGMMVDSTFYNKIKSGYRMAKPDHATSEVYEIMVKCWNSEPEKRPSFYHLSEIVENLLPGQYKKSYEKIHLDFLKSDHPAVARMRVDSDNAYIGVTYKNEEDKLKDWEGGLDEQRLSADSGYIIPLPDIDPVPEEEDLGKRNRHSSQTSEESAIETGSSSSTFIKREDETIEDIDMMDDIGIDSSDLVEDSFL
- procedure.details: Caliper biochemical assay, PDGFRα
- experimental.context: Table 6
pIC50: −log10 of the molar value.

| compound | measured.target | pIC50 |
| --- | --- | --- |
| COCCS(=O)(=O)N1CC(c2nc(-c3ccc(C)c(NC(=O)c4cnc5ccccn45)c3)no2)C1 [Compound I-235] | PDGFRα (Homo sapiens, UniProt P16234) | 4.52 to 5.30 |
| Cc1ccc(-c2noc(-c3ccccn3)n2)cc1NC(=O)c1cnc2ccccn12 [Compound I-272] | PDGFRα (Homo sapiens, UniProt P16234) | 5.30 to 6.30 |
| CNC(=O)N1CC(c2nc(-c3ccc(C)c(NC(=O)c4cnc5ccccn45)c3)no2)C1 [Compound I-282] | PDGFRα (Homo sapiens, UniProt P16234) | 4.52 to 5.30 |
| Cc1ccc(-c2noc(C34CCC(CC3)CC4)n2)cc1NC(=O)c1cnc2ccccn12 [Compound I-311] | PDGFRα (Homo sapiens, UniProt P16234) | ≥ 7.30 |
| Cc1nc(-c2ccc(C)c(NC(=O)c3cnc4ccc(N(C)C)cn34)c2)no1 [Compound I-205] | PDGFRα (Homo sapiens, UniProt P16234) | 6.30 to 7.30 |
| Cc1ccc(-c2noc([C@@H]3CCC(C)(C)N3)n2)cc1NC(=O)c1cnc2ccccn12 (racemic) [Compound I-232] | PDGFRα (Homo sapiens, UniProt P16234) | 6.30 to 7.30 |
| CCc1nc(-c2ccc(C)c(NC(=O)c3cnc4ccccn34)c2)no1 [Compound I-283] | PDGFRα (Homo sapiens, UniProt P16234) | 4.52 to 5.30 |
| COC(=O)N1CC(c2nc(-c3ccc(C)c(NC(=O)c4cnn5ccc(C#N)cc45)c3)no2)C1 [Compound I-265] | PDGFRα (Homo sapiens, UniProt P16234) | 4.52 to 5.30 |
| COC(=O)CS(=O)(=O)N1CC[C@H]1c1nc(-c2ccc(C)c(NC(=O)c3cnc4ccccn34)c2)no1 [Compound I-188] | PDGFRα (Homo sapiens, UniProt P16234) | 6.30 to 7.30 |
| Cc1nc(-c2ccc(C)c(NC(=O)c3cnn4ccccc34)c2)no1 [Compound I-428] | PDGFRα (Homo sapiens, UniProt P16234) | 5.30 to 6.30 |
| Cc1ccc(-c2noc([C@@H]3CCCO3)n2)cc1NC(=O)c1cnc2ccccn12 [Compound I-396] | PDGFRα (Homo sapiens, UniProt P16234) | 5.30 to 6.30 |
| Cc1ccc(-c2noc(CC(C)O)n2)cc1NC(=O)c1cnc2ccccn12 (racemic) [Compound I-363] | PDGFRα (Homo sapiens, UniProt P16234) | 5.30 to 6.30 |
| Cc1ccc(-c2noc(C3CCS(=O)(=O)N3)n2)cc1NC(=O)c1cnc2ccccn12 (racemic) [Compound I-330] | PDGFRα (Homo sapiens, UniProt P16234) | 6.30 to 7.30 |
| Cc1ccc(-c2noc(C3CCN3S(C)(=O)=O)n2)cc1NC(=O)c1cnc2ccccn12 (racemic) [Compound I-356] | PDGFRα (Homo sapiens, UniProt P16234) | 5.30 to 6.30 |
| Cc1ccc(-c2noc(C3(CO)CC(F)(F)C3)n2)cc1NC(=O)c1cnc2ccccn12 [Compound I-320] | PDGFRα (Homo sapiens, UniProt P16234) | 6.30 to 7.30 |
| COC(=O)N1CC(c2nc(-c3ccc(Cl)c(NC(=O)c4cnc5ccccn45)c3)no2)C1 [Compound I-339] | PDGFRα (Homo sapiens, UniProt P16234) | 5.30 to 6.30 |

---

- measured.target: MDR1 (MDR1-MDCKII cells) (Homo sapiens, UniProt P08183)
- Construct: host or cells: MDCKII (canine kidney) cells
- Sequence (P08183 whole entry): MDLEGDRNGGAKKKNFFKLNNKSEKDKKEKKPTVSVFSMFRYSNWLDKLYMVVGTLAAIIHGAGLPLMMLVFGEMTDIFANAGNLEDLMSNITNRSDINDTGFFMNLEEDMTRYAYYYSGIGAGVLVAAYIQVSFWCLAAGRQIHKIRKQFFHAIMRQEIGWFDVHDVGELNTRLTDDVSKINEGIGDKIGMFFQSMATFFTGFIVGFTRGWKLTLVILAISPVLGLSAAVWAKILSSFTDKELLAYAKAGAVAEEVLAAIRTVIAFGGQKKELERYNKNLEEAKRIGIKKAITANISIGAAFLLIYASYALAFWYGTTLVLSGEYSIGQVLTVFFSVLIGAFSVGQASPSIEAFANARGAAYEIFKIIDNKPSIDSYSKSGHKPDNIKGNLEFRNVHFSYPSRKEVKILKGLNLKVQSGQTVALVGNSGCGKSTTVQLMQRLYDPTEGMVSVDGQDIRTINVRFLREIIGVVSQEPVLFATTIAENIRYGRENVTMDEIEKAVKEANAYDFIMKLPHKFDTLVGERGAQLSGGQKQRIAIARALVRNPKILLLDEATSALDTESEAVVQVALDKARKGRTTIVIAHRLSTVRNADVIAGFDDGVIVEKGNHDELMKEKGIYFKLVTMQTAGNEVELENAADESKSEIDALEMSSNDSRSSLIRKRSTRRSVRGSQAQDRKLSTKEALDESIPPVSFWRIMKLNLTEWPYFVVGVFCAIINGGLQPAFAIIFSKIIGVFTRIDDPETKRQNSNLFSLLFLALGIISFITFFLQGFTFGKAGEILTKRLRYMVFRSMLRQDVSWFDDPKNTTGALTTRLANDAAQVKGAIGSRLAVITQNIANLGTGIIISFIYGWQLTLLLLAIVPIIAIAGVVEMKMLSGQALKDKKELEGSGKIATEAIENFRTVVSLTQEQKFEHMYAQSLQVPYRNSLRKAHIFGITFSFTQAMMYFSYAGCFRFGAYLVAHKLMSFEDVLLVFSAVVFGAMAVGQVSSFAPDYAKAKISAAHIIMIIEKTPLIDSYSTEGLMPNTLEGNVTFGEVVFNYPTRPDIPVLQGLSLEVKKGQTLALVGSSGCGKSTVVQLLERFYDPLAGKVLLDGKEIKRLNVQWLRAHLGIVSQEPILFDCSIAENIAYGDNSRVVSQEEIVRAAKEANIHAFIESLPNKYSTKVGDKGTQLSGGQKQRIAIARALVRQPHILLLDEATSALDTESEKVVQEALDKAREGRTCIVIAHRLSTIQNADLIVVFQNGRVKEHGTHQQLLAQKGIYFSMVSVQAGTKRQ
- procedure.details: Permeability in MDR1-MDCKII cells
- Type: in vitro ADME
- experimental.context: MDCKII-MDR1, apical to basolateral
metric.name: MDCKII-MDR1: Papp A-B

| compound | endpoint.value |
| --- | --- |
| Cc1ccc(-c2noc([C@H]3C[C@@H]3F)n2)cc1NC(=O)c1cnc2cc(OC(F)(F)F)ccn12 | 4.58 10^−6 cm/s |
| Cc1ccc(-c2noc(CC(C)(C)O)n2)cc1NC(=O)c1cnc2ccccn12 | 15.4 10^−6 cm/s |
| Cc1ccc(-c2noc(CCO)n2)cc1NC(=O)c1cnc2ccccn12 | 14.5 10^−6 cm/s |
| Cc1ccc(-c2noc([C@@H](C)O)n2)cc1NC(=O)c1cnc2ccccn12 | 17.2 10^−6 cm/s |
| Cc1ccc(-c2noc([C@H]3CC(F)(F)CN3)n2)cc1NC(=O)c1cnc2ccccn12 | 21.4 10^−6 cm/s |
| Cc1ccc(-c2noc(C3CCC3F)n2)cc1NC(=O)c1cnc2ccccn12 (racemic) | 8.41 10^−6 cm/s |
| Cc1ccc(-c2noc(C3CC(C)(F)C3)n2)cc1NC(=O)c1cnc2ccccn12 (centres unmarked) | 7.59 10^−6 cm/s |
| O=C(Nc1cc(-c2noc([C@H]3C[C@@H]3F)n2)ccc1Cl)c1cnc2ccccn12 | 17.7 10^−6 cm/s |
